Below, each of the molecules is paired with its reported Bliss excess value.
test system: NUGC-4 (Gastric Carcinoma); assay: Bliss excess, mean over the matrix (fraction); higher = more synergy;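 further: after 72 h of two-drug dosing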
Answer with a number only.

See these solved cases before continuing.
>>> readout_value("C[C@@H](c1ccc2nccn2c1)n1nnc2ncc(-c3cnn(C)c3)nc21 [Savolitinib] + CN(CC[C@H](CSC1=CC=CC=C1)NC2=C(C=C(C=C2)S(=O)(=O)NC(=O)C3=CC=C(C=C3)N4CCC(CC4)[C@H](C5=CC=CC=C5C6=CC=C(C=C6)Cl)O)S(=O)(=O)C(F)(F)F)CCO [AZD4320] (first compound max 1 µM, 7x7, partner max 1 µM)")
-0.0363
>>> readout_value("CCc1c2c(nc3ccc(O)cc13)-c1cc3c(c(=O)n1C2)COC(=O)[C@]3(O)CC [SN-38] + CN(C)CCCOc1ccc(-c2ccc3ncc4c(c3c2)n(C2CCOCC2)c(=O)n4C)cn1 [AZD0156] (first compound max 0.3 µM, 7x7, partner max 1 µM)")
0.0208
>>> readout_value("CC(=O)Nc1cccc(-n2c(=O)n(C3CC3)c(=O)c3c(Nc4ccc(I)cc4F)n(C)c(=O)c(C)c32)c1 [Trametinib] + Cc1nc(-c2cn3c(n2)-c2ccc(-c4cnn(C(C)(C)C(N)=O)c4)cc2OCC3)n(C(C)C)n1 [Taselisib] (first compound max 1 µM, 7x7, partner max 10 µM)")
0.0347
>>> readout_value("CN(CCO)CC[C@H](CSc1ccccc1)Nc1ccc(S(=O)(=O)NC(=O)c2ccc(N3CCC([C@@H](O)c4ccccc4-c4ccc(Cl)cc4)CC3)cc2)cc1S(=O)(=O)C(F)(F)F [AZD4320] + C[C@@H](Nc1cc(F)cc(F)c1)c1cc(C(=O)N(C)C)cc2c(=O)cc(N3CCOCC3)oc12 [AZD8186] (first compound max 1 µM, 7x7, partner max 3 µM)")
0.0385
>>> readout_value("COc1cccc(OCCCN)c1-c1cc(Nc2cnc(C#N)cn2)n[nH]1 [Prexasertib] + CN(C)CCCOc1ccc(-c2ccc3ncc4c(c3c2)n(C2CCOCC2)c(=O)n4C)cn1 [AZD0156] (first compound max 1 µM, 7x7, partner max 1 µM)")
0.0697

Looking up Cn1cnc2c(F)c(Nc3ccc(Br)cc3Cl)c(C(=O)NOCCO)cc21 [Selumetinib] + C=CCn1c(=O)c2cnc(Nc3ccc(N4CCN(C)CC4)cc3)nc2n1-c1cccc(C(C)(C)O)n1 [AZD1775] (first compound max 10 µM, partner max 1 µM) , I see its Bliss excess listed as -0.0286

Looking up COc1cc2ncnc(Nc3ccc(F)c(Cl)c3)c2cc1OCCCN1CCOCC1 [Gefitinib] + CC(C)n1c(=O)n(C)c2cnc3cc(F)c(-c4ccc(OCCCN5CCCCC5)nc4)cc3c21 [AZD1390] (first compound max 10 µM, 7x7, partner max 0.3 µM) , I see its Bliss excess listed as -0.0491

Looking up NC1(C(=O)N[C@@H](CCO)c2ccc(Cl)cc2)CCN(c2ncnc3[nH]ccc23)CC1 [Capivasertib] + C[C@@H]1COCCN1C2=NC(=NC(=C2)C3(CC3)[S@](=N)(=O)C)C4=C5C=CNC5=NC=C4 [AZD6738] (first compound max 10 µM, 7x7, partner max 10 µM) , I see its Bliss excess listed as -0.0488
